Ref: patent US10010560B2

- Tested on: human melanoma cell lines
- Test Description: MTT assays of human melanoma cell lines
- Type: cell-based
- Condition Context: several melanoma cell lines, 72 h
Measured Parameter: IC50

Q. Identify the reported IC50 for the following entry. C(#C[P+](c1ccccc1)(c1ccccc1)c1ccccc1)c1ccccc1.[Br-]
A. 500 to 1500 nM

###

- Test System: ADP-HSP70 N505D (Homo sapiens, UniProt P0DMV8, E110D/N505D)
- Construct: The full-length HSP70 and DnaK mutants were constructed by PCR-based site-directed mutagenesis; His6 (N); made in house; host or cells: E. coli BL21 Star (DE3)
- Sequence (P0DMV8 whole entry E110D/N505D): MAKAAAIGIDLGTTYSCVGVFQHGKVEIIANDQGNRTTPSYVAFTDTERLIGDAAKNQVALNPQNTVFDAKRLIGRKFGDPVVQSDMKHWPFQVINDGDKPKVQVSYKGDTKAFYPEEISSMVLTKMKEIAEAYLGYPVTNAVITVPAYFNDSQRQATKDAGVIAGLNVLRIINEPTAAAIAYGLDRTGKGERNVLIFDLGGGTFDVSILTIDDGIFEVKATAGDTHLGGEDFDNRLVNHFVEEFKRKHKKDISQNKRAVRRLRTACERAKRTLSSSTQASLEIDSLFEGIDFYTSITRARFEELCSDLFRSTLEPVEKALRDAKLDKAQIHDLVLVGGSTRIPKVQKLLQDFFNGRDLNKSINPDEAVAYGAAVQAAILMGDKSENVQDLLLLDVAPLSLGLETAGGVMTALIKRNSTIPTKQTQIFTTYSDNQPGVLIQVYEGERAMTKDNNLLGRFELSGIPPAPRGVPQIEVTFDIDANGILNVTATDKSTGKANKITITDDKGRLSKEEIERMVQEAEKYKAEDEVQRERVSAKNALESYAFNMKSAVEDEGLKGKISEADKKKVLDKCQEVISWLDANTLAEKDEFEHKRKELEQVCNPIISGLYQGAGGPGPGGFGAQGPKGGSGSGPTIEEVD
- Test Description: ITC, mutated full-length ADP-HSP70
- Type: binding
- Condition Context: ADP-HSP70 mutant N505D
Measured Parameter: pKd
Reminder that pKd means the negative base-10 logarithm of the concentration expressed in mol/L.

Q. Give the observed pKd of C(#C[P+](c1ccccc1)(c1ccccc1)c1ccccc1)c1ccccc1.[Br-] [PET-16] for ADP-HSP70 N505D (Homo sapiens, UniProt P0DMV8, E110D/N505D).
A. 3.83

###

pKd: recorded values
- Test System: ATP-HSP70 (WT) (Homo sapiens, UniProt P0DMV8, E110D)
- Construct: Full-length recombinant proteins of HSP70 (aa 1-641) as well as DnaK (aa 1-638); His6 (N)
- Sequence (P0DMV8 whole entry E110D, the tested form may be a part): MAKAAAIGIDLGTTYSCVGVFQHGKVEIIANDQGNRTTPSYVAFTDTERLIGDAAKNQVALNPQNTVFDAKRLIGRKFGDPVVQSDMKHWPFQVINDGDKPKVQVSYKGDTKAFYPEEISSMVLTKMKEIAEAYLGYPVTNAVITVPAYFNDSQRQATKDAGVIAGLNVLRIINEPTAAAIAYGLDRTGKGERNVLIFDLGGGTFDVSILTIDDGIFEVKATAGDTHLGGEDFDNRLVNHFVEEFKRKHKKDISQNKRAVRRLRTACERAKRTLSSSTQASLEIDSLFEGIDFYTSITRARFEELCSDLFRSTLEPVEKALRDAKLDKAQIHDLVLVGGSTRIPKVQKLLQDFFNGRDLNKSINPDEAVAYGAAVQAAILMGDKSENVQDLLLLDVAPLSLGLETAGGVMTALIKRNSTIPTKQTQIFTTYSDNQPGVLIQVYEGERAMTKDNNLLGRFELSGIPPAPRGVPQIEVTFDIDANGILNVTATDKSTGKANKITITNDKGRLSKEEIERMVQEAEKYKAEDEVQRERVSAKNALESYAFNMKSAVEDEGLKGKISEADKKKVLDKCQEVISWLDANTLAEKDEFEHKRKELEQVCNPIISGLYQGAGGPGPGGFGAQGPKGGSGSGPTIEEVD
- Test Description: ITC binding to ATP-bound full-length HSP70
- Condition Context: wild-type full-length ATP-bound HSP70
Lab note: report pKd as minus log10 of the concentration in molar units, number only.

C(#C[P+](c1ccccc1)(c1ccccc1)c1ccccc1)c1ccccc1.[Br-]; 3.89

With those in mind, consider the next molecule.
Q. In one line, give reported pKd of the entry CC(C)C[C@H](NC(=O)[C@H](CC(C)C)NC(=O)[C@H](CCCNC(=N)N)NC(=O)[C@@H](N)CC(N)=O)C(=O)N[C@@H](CC(C)C)C(=O)N[C@H](C(=O)NCC(=O)O)[C@@H](C)O [NRLLLTG, reference compound] .
A. 2.90

###

- Test System: ADP-HSP70 D506A (Homo sapiens, UniProt P0DMV8, D506A/E110D)
- Construct: The full-length HSP70 and DnaK mutants were constructed by PCR-based site-directed mutagenesis; His6 (N)
- Test Description: ITC, mutated full-length ADP-HSP70
- Condition Context: ADP-HSP70 mutant D506A
Measured Parameter: Kd (µM)
Report as a plain number; the unit µM is understood.

Q. Please give measured Kd of the following entry: C(#C[P+](c1ccccc1)(c1ccccc1)c1ccccc1)c1ccccc1.[Br-]
A. 112

###

- Test System: ADP-HSP70 L394D (Homo sapiens, UniProt P0DMV8, E110D/L394D)
- Construct: The full-length HSP70 and DnaK mutants were constructed by PCR-based site-directed mutagenesis; His6 (N)
- Test Description: ITC, mutated full-length ADP-HSP70
- Condition Context: ADP-HSP70 mutant L394D
Measured Parameter: Kd (µM)
Please state the figure in µM; there is no need to write the unit.

Q. Specify reported Kd for the molecule shown: C(#C[P+](c1ccccc1)(c1ccccc1)c1ccccc1)c1ccccc1.[Br-] [PET-16]
A. 30.8

###

- Test System: ADP-DnaK (WT, aa 1-638) (Escherichia coli, UniProt P0A6Y8)
- Construct: Full-length recombinant proteins of HSP70 (aa 1-641) as well as DnaK (aa 1-638); His6 (N); made in house; host or cells: E. coli BL21 Star (DE3)
- Test Description: ITC binding to ADP-bound full-length DnaK
- Design: species or system E. coli
Measured Parameter: Kd

Q. Given the compound C(#C[P+](c1ccccc1)(c1ccccc1)c1ccccc1)c1ccccc1.[Br-] , write its reported Kd.
A. ~6 µM

###

- Test System: ADP-HSP70 (WT, aa 1-641) (Homo sapiens, UniProt P0DMV8, E110D)
- Construct: Full-length recombinant proteins of HSP70 (aa 1-641) as well as DnaK (aa 1-638); His6 (N); made in house; host or cells: E. coli BL21 Star (DE3)
- Sequence (P0DMV8 whole entry E110D, the tested form may be a part): as above
- Test Description: ITC binding to ADP-bound full-length HSP70
- Condition Context: ITC, wild-type full-length ADP-bound HSP70
- Excerpt: The human stress-inducible HSP70 (residues 1-641 or 386-616 of SEQ ID NO: 2) and E. coli DnaK (residues 1-638, 389-607, or 393-507 of SEQ ID NO: 4) were cloned into the pET25 vector (EMD Millipore Chemicals, Inc., Billerica, Mass., USA) between the NdeI and XhoI restriction sites. The full-length HSP70 and DnaK mutants were constructed by PCR-based site-directed mutagenesis using the QuikChange™ Site-Directed Mutagenesis Kit (Agilent Technologies, Inc., Santa Clara, Calif., USA). […]
pKd: −log10 of the molar value.
Below is a list of entries, each paired with its recorded pKd value.

C(#C[P+](c1ccccc1)(c1ccccc1)c1ccccc1)c1ccccc1.[Br-]; ~5.42

// next entry
Q. Using the record for NS(=O)(=O)C#Cc1ccccc1 [PES, 2-Phenylethynesulfonamide, reference compound] , state its measured pKd.
A. ~5.24

###

- Test System: ADP-HSP70 (WT, aa 1-641) (Homo sapiens, UniProt P0DMV8, E110D)
- Construct: Full-length recombinant proteins of HSP70 (aa 1-641) as well as DnaK (aa 1-638); His6 (N); made in house; host or cells: E. coli BL21 Star (DE3)
- Test Description: ITC binding to ADP-bound full-length HSP70
- Condition Context: dimeric ADP-bound HSP70 (N=0.5)
Measured Parameter: pKd
Conceptually, pKd converts a concentration in mol/L into minus its log10.

Q. Read the entry C(#C[P+](c1ccccc1)(c1ccccc1)c1ccccc1)c1ccccc1.[Br-] and write its reported pKd.
A. 5.42

###

- Test System: full-length, nucleotide-free HSP70 protein (Homo sapiens, UniProt P0DMV8, E110D)
- Construct: Full-length recombinant proteins of HSP70 (aa 1-641) as well as DnaK (aa 1-638); His6 (N)
- Sequence (P0DMV8 whole entry E110D, the tested form may be a part): as above
- Test Description: ITC binding to nucleotide-free full-length HSP70
- Condition Context: average and s.d. of two experiments, read-out: dissociation constant
Measured Parameter: Kd

Q. Quote full-length, nucleotide-free HSP70 protein (Homo sapiens, UniProt P0DMV8, E110D) Kd for entry C(#C[P+](c1ccccc1)(c1ccccc1)c1ccccc1)c1ccccc1.[Br-] [PET-16] .
A. 5.2 µM

###

- Test System: ADP-HSP70 G484D (Homo sapiens, UniProt P0DMV8, E110D/G484D)
- Construct: The full-length HSP70 and DnaK mutants were constructed by PCR-based site-directed mutagenesis; His6 (N)
- Sequence (P0DMV8 whole entry E110D/G484D): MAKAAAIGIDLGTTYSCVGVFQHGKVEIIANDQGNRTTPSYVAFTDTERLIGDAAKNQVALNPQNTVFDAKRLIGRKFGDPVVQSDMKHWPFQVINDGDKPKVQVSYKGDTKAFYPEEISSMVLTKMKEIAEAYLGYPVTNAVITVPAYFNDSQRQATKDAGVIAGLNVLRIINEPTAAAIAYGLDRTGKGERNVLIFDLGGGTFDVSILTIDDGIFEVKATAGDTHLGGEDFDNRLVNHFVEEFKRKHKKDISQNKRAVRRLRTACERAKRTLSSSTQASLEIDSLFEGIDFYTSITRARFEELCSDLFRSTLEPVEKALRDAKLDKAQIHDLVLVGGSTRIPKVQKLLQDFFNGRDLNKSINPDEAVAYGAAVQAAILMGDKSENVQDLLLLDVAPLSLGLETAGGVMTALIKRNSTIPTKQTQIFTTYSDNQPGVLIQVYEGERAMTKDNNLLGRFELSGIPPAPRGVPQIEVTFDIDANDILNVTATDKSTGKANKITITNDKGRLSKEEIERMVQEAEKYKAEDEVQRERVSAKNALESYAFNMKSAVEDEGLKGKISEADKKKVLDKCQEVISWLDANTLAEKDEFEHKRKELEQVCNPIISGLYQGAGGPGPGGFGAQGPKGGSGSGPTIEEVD
- Test Description: ITC, mutated full-length ADP-HSP70
- Condition Context: ADP-HSP70 mutant G484D
Measured Parameter: pKd
Friendly reminder that pKd comes from taking -log10 of the concentration in mol/L.

Q. Give pKd for the following compound: C(#C[P+](c1ccccc1)(c1ccccc1)c1ccccc1)c1ccccc1.[Br-] [PET-16]
A. 4.01

###

- Test System: ADP-HSP70 P398L (Homo sapiens, UniProt P0DMV8, E110D/P398L)
- Construct: The full-length HSP70 and DnaK mutants were constructed by PCR-based site-directed mutagenesis; His6 (N); made in house; host or cells: E. coli BL21 Star (DE3)
- Sequence (P0DMV8 whole entry E110D/P398L): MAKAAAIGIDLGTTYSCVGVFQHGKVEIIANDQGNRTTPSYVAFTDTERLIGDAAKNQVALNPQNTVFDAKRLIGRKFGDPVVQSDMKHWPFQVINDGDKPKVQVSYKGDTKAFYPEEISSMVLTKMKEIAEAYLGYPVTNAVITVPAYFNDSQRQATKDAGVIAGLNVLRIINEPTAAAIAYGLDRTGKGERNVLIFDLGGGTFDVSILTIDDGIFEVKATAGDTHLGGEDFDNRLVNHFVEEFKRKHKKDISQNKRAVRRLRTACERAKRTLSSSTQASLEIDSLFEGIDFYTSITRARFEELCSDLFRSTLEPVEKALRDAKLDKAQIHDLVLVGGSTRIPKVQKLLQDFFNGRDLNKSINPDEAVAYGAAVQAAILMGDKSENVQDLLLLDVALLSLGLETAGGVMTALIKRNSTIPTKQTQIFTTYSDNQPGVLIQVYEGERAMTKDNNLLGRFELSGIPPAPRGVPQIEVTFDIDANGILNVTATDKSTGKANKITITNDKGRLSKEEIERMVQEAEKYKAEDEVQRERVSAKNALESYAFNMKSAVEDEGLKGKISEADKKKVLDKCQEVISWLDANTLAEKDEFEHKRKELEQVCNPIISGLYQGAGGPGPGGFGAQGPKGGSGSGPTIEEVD
- Test Description: ITC, mutated full-length ADP-HSP70
- Assay type: binding
- Condition Context: ADP-HSP70 mutant P398L
Measured Parameter: Kd (µM)
Just the number please, in µM, no unit attached.

Q. Hello, please tell me recorded Kd for this one: C(#C[P+](c1ccccc1)(c1ccccc1)c1ccccc1)c1ccccc1.[Br-]
A. 23.4
